experiment: Cytotoxicity against mouse L929 cells assessed as inhibition of cell proliferation by MTT assay; format: toxicity, cell-based
measured_metric: pIC50
Lab note — pIC50 values are minus log10 of concentrations in M.

Cc1cccc(-c2nc(SCC(=O)O[C@H]3CC[C@@]4(C)[C@@H](CC[C@]5(C)[C@H]4C[C@@H](O)[C@@H]4[C@H]([C@@]6(C)CCCC(C)(C)O6)CC[C@]45C)C3(C)C)[nH]c(=O)c2C#N)c1
4.11
CC(C)c1ccc(-c2nc(SCC(=O)O[C@H]3CC[C@@]4(C)[C@@H](CC[C@]5(C)[C@H]4C[C@@H](O)[C@@H]4C([C@@]6(C)CCCC(C)(C)O6)CC[C@]45C)C3(C)C)[nH]c(=O)c2C#N)cc1 (some centres undefined)
4.23

Now consider a different molecule.
The measured pIC50 associated with `CC1(C)CCC[C@](C)([C@@H]2CC[C@]3(C)[C@@H]2[C@H](O)C[C@H]2[C@@]4(C)CC[C@H](OC(=O)CSc5nc(-c6cccc(O)c6)c(C#N)c(=O)[nH]5)C(C)(C)[C@@H]4CC[C@]23C)O1` reads 4.10
